Just for reference, patent US10442793B2 is where these values come from.

# target_entity: MOR receptor (Homo sapiens, UniProt P35372)
# Construct: host or cells: CHO-K1
# Sequence (P35372 whole entry): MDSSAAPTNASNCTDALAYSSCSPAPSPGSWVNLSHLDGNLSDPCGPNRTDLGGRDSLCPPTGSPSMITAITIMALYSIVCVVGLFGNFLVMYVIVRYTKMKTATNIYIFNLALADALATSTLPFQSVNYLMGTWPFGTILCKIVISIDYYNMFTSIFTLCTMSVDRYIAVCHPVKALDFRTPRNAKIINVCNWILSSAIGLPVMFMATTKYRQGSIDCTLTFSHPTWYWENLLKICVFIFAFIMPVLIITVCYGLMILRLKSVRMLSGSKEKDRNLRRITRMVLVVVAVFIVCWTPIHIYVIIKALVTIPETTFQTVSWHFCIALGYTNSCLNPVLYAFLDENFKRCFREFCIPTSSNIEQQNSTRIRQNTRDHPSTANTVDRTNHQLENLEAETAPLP
# procedure_text: Activation of the β-arrestin signaling pathway of MOR receptor (CHO-K1 OPRM1 β-Arrestin cells, DiscoveRX)
# Type: cell-based
# conditions_used: CHO-K1 OPRM1 β-Arrestin cells, 90 minutes; read-out: EC50 on the β-arrestin signaling pathway
pEC50: −log10 of the molar value.
readout_label: pEC50

* c1ccc([C@]2(CCN[C@H]3CCC4(SCCS4)c4ccccc43)CCOC3(CCCC3)C2)nc1 | 8.22
* N#CCO[C@H]1CC[C@H](NCC[C@@]2(c3ccccn3)CCOC3(CCCC3)C2)c2ccccc21 | 7.48
* c1ccc([C@]2(CCN[C@H]3CC[C@H](OCC4CC4)c4ccccc43)CCOC3(CCCC3)C2)nc1 | 8.40
* CCN1CC[C@H](NCC[C@@]2(c3ccccn3)CCOC3(CCCC3)C2)c2ccccc21 | 8.40
* CCCO[C@H]1CC[C@H](NCC[C@@]2(c3ccccn3)CCOC3(CCCC3)C2)c2ccccc21 | 7.80

----------
The reader will find reported EC50 values listed item by item below.
# target_entity: KOR receptor (Homo sapiens, UniProt P41145)
# Construct: expressed in transfected cells; host or cells: HEK293
# Sequence (P41145 whole entry): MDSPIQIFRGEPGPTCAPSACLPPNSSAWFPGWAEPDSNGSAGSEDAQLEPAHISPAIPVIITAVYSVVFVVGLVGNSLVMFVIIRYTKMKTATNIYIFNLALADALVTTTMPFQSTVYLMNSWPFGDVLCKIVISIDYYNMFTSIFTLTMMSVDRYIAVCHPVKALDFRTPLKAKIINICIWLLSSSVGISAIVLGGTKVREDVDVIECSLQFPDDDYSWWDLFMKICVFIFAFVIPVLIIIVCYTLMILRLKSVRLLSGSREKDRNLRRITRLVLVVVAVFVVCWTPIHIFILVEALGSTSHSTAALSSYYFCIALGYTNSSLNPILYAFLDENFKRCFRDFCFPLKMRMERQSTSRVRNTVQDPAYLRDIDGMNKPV
# procedure_text: KOR activity test: HEK293/KOR/CRE luciferase reporter, cAMP levels
# Type: cell-based
# conditions_used: HEK293/KOR/CRE cells, 4 h incubation; read-out: KOR EC50
readout_label: EC50 (µM)

* c1ccc([C@]2(CCN[C@H]3CC[C@H](OCC4CC4)c4ccccc43)CCOC3(CCCC3)C2)nc1 [Example 20] | 0.71
* FCCO[C@H]1CC[C@H](NCC[C@@]2(c3ccccn3)CCOC3(CCCC3)C2)c2ccccc21 [Example 21] | 1.18

----------
# target_entity: DOR receptor (Homo sapiens)
# Construct: expressed in transfected cells; host or cells: HEK293
# procedure_text: DOR activity test: HEK293/DOR/CRE luciferase reporter, cAMP levels
# Assay type: cell-based
# conditions_used: HEK293/DOR/CRE cells, 4 h incubation; read-out: DOR EC50
readout_label: EC50 (nM)

- c1ccc([C@]2(CCN[C@H]3CC[C@H](OCC4CC4)c4ccccc43)CCOC3(CCCC3)C2)nc1 [Example 20]: 1520
- FCCO[C@H]1CC[C@H](NCC[C@@]2(c3ccccn3)CCOC3(CCCC3)C2)c2ccccc21 [Example 21]: 1490

----------
# target_entity: DOR receptor (Homo sapiens, UniProt P41143)
# Construct: expressed in transfected cells; host or cells: HEK293
# Sequence (P41143 whole entry): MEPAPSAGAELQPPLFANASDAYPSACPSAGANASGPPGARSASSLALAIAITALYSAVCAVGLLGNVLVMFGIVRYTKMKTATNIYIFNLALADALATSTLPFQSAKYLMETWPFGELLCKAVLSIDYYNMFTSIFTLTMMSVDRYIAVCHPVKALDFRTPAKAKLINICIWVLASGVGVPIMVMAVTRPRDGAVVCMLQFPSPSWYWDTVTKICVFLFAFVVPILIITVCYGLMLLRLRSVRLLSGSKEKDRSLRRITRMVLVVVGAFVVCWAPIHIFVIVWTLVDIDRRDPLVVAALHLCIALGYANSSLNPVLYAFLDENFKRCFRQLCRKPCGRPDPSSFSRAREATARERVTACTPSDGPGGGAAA
# procedure_text: DOR activity test: HEK293/DOR/CRE luciferase reporter, cAMP levels
# Assay type: cell-based
# conditions_used: HEK293; maximum effect of morphine is 100%
readout_label: Emax (%)

• c1ccc([C@]2(CCN[C@H]3CC[C@H](OCC4CC4)c4ccccc43)CCOC3(CCCC3)C2)nc1 [Example 20] = 118
• FCCO[C@H]1CC[C@H](NCC[C@@]2(c3ccccn3)CCOC3(CCCC3)C2)c2ccccc21 [Example 21] = 107
• O=C1CC[C@H](NCC[C@@]2(c3ccccn3)CCOC3(CCCC3)C2)c2ccccc21 [Example 11] = 80
• COC[C@H]1CC[C@H](NCC[C@@]2(c3ccccn3)CCOC3(CCCC3)C2)c2ccccc21 [Example 22] = 102
• CO[C@H]1CC[C@H](NCC[C@@]2(c3ccccn3)CCOC3(CCCC3)C2)c2ccccc21 [Example 14] = 91
• CCO[C@H]1CC[C@H](NCC[C@@]2(c3ccccn3)CCOC3(CCCC3)C2)c2ccccc21 [Example 19] = 108
